- targetOrTestSystem: BAR/FXR (BAR-RXR heterodimer) (UniProt P19793+Q62735)
- Sequence (Q62735 whole entry): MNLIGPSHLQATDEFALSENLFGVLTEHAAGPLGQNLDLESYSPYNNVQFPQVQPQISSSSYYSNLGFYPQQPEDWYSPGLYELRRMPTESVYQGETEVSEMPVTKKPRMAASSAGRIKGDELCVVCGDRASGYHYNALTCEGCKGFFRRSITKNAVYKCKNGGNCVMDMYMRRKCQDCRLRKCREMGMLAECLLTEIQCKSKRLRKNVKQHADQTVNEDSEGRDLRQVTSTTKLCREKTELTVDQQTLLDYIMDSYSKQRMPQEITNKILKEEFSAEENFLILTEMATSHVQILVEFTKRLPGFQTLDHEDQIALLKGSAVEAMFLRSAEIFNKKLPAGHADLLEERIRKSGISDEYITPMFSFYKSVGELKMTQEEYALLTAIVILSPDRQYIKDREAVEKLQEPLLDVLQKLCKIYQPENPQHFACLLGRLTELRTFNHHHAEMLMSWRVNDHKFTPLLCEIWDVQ
- Sequence (P19793 whole entry): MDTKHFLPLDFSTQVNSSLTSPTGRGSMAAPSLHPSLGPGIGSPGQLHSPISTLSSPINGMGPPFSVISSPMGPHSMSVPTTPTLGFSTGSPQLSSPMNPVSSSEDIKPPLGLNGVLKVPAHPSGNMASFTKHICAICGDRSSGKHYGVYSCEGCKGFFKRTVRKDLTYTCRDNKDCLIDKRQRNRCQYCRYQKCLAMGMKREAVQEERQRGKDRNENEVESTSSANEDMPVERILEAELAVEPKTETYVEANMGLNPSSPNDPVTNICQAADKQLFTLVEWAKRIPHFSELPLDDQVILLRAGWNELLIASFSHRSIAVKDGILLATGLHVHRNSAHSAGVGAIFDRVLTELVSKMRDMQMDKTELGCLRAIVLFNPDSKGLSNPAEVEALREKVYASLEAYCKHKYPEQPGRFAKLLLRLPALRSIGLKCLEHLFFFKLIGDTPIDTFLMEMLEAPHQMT
- runDescription: Transient cotransfection luciferase reporter assay, full-length BAR/FXR and RXR in CV-1 cells
pEC50: −log10 of the molar value.
Recorded pEC50 values for a group of molecules are listed next.
reportedProperty: pEC50

{"columns": ["molecule", "reportedMeasurement"],
 "data": [
  ["CCCC/C(=C\\c1ccc(C(=O)O)cc1)c1ccc2c(c1)C(C)(C)CCC2(C)C [AGN 31]", "~5.70"],
  ["Cc1cc2c(cc1/C(=C/c1ccc(C(=O)O)cc1)[Si](C)(C)C)C(C)(C)CCC2(C)C [AGN 29]", "~5.70"]
]}
